Where these numbers come from: ChEMBL document CHEMBL5360529

system: Mycobacterium tuberculosis; test: Antimycobacterial activity against Mycobacterium tuberculosis H37RV assessed as bacterial growth inhibition; type: functional
Hi there, I'd appreciate the recorded MIC for every entry that follows.
Numeric only. Scale: µg/mL

Challenge: Complete the entry with MIC for COc1ccc(Cn2cnc3c(-c4ccco4)nc(Cl)nc32)cc1
Response given: 0.78

Challenge: Complete the entry with MIC for NCC[C@H](O)C(=O)N[C@@H]1C[C@H](N)[C@@H](O[C@H]2O[C@H](CN)[C@@H](O)[C@H](O)[C@H]2O)[C@H](O)[C@H]1O[C@H]1O[C@H](CO)[C@@H](O)[C@H](N)[C@H]1O [AMIKACIN]
Response given: 2
